Value source: patent US20260193668A1

# System: A. thaliana plants
# Method Description: Flowering day of A. thaliana plants
# Format: in vivo, Arabidopsis thaliana
# Protocol Conditions: sprayed with 10 μM peptide three times a week until flowering
Metric: plant development, measured by the day of flowering

Substance	Assay Target	Meas Value
SEQ ID NO: 199 (ARGLAYLHE; AhBAK1)	A. thaliana plants	decrease
SEQ ID NO: 182 (ASGNETDEYD; cPEPspt)	A. thaliana plants	decrease
SEQ ID NO: 185 (VERRETPSGE; cPEPhag5)	A. thaliana plants	decrease
SEQ ID NO: 183 (SDFSSKYRED; cPEPga2ox7)	A. thaliana plants	decrease

query: State the recorded plant development, measured by the day of flowering for this entry: cPEPwus (RWTPTTEQIK; cPEPwus) [SEQ ID NO: 196]
result: decrease

query: So what's the measured plant development, measured by the day of flowering for this one? SEQ ID NO: 186 (HGEARDSEEV; cPEPshr)
result: decrease

query: What value of plant development, measured by the day of flowering has been recorded for this entry: SEQ ID NO: 198 (RHRNLVRLQG; AhBRI1)
result: decrease

query: Sample SEQ ID NO: 204 (NPVERSRHRD; cPEPein2_1) — what was its plant development, measured by the day of flowering?
result: decrease

query: For the substance cPEPmrb1 (NSEITKTAND; cPEPmrb1) [SEQ ID NO: 180] , what plant development, measured by the day of flowering is on record?
result: increased

query: Requested field: plant development, measured by the day of flowering. Item: cPEPshy2 (EENRSELLQR; cPEPshy2) [SEQ ID NO: 178]
result: increased

query: Which plant development, measured by the day of flowering reading was recorded for the substance SEQ ID NO: 181 (NKGKTVEGWR; cPEPtap46) ?
result: decrease

query: Entry SEQ ID NO: 184 (LRETDLKDRR; cPEPphyb) has what plant development, measured by the day of flowering?
result: decrease
